Tested on: Mycobacterium tuberculosis Erdman (autoluminescent)
Protocol Text: AUC25, normalised area under dose response up to IC25 (three-drug combination) (fraction (0-1)); higher = more potent at low dose
Protocol Conditions: in vitro model: standard 7H9 glycerol; time point: constant = terminal

{"columns": ["Compound", "Study System", "AUC25"],
 "data": [
  ["CC(C)/N=c1\\cc2n(-c3ccc(Cl)cc3)c3ccccc3nc-2cc1Nc1ccc(Cl)cc1 [clofazimine] + COc1c(N2C[C@@H]3CCCN[C@@H]3C2)c(F)cc2c(=O)c(C(=O)O)cn(C3CC3)c12 [moxifloxacin] + O=[N+]([O-])c1cn2c(n1)OC[C@@H](OCc1ccc(OC(F)(F)F)cc1)C2 [pretomanid]", "Mycobacterium tuberculosis Erdman (autoluminescent)", 0.112],
  ["CC[C@@H](CO)NCCN[C@@H](CC)CO [ethambutol] + COc1c(N2C[C@@H]3CCCN[C@@H]3C2)c(F)cc2c(=O)c(C(=O)O)cn(C3CC3)c12 [moxifloxacin] + CO[C@H]1/C=C/O[C@@]2(C)Oc3c(C)c(O)c4c(O)c(c(/C=N/N5CCN(C)CC5)c(O)c4c3C2=O)NC(=O)/C(C)=C\\C=C\\[C@H](C)[C@H](O)[C@@H](C)[C@@H](O)[C@@H](C)[C@H](OC(C)=O)[C@@H]1C [rifampicin]", "Mycobacterium tuberculosis Erdman (autoluminescent)", 0.0299],
  ["O=[N+]([O-])c1cn2c(n1)OC[C@@H](OCc1ccc(OC(F)(F)F)cc1)C2 [pretomanid] + NC(=O)c1cnccn1 [pyrazinamide] + CO[C@H]1/C=C/O[C@@]2(C)Oc3c(C)c(O)c4c(O)c(c(/C=N/N5CCN(C)CC5)c(O)c4c3C2=O)NC(=O)/C(C)=C\\C=C\\[C@H](C)[C@H](O)[C@@H](C)[C@@H](O)[C@@H](C)[C@H](OC(C)=O)[C@@H]1C [rifampicin]", "Mycobacterium tuberculosis Erdman (autoluminescent)", 0.0634],
  ["NNC(=O)c1ccncc1 [isoniazid] + CO[C@H]1/C=C/O[C@@]2(C)Oc3c(C)c(O)c4c(O)c(c(/C=N/N5CCN(C6CCCC6)CC5)c(O)c4c3C2=O)NC(=O)/C(C)=C\\C=C\\[C@H](C)[C@H](O)[C@@H](C)[C@@H](O)[C@@H](C)[C@H](OC(C)=O)[C@@H]1C [rifapentine] + CO[C@H]1/C=C/O[C@@]2(C)Oc3c(C)c(O)c4c(O)c(c(/C=N/N5CCN(C)CC5)c(O)c4c3C2=O)NC(=O)/C(C)=C\\C=C\\[C@H](C)[C@H](O)[C@@H](C)[C@@H](O)[C@@H](C)[C@H](OC(C)=O)[C@@H]1C [rifampicin]", "Mycobacterium tuberculosis Erdman (autoluminescent)", 0.0666],
  ["CC(C)/N=c1\\cc2n(-c3ccc(Cl)cc3)c3ccccc3nc-2cc1Nc1ccc(Cl)cc1 [clofazimine] + NNC(=O)c1ccncc1 [isoniazid] + CO[C@H]1/C=C/O[C@@]2(C)Oc3c(C)c(O)c4c(O)c(c(/C=N/N5CCN(C6CCCC6)CC5)c(O)c4c3C2=O)NC(=O)/C(C)=C\\C=C\\[C@H](C)[C@H](O)[C@@H](C)[C@@H](O)[C@@H](C)[C@H](OC(C)=O)[C@@H]1C [rifapentine]", "Mycobacterium tuberculosis Erdman (autoluminescent)", 0.111],
  ["COc1nc2ccc(Br)cc2cc1[C@@H](c1ccccc1)[C@@](O)(CCN(C)C)c1cccc2ccccc12 [bedaquiline] + CC(C)/N=c1\\cc2n(-c3ccc(Cl)cc3)c3ccccc3nc-2cc1Nc1ccc(Cl)cc1 [clofazimine] + NC(=O)c1cnccn1 [pyrazinamide]", "Mycobacterium tuberculosis Erdman (autoluminescent)", 0.0904]
]}

Origin of values: the supplement of paper PMC8617591
